TEST_TARGET: human Edg-1 (S1P1) (Homo sapiens, UniProt P21453)
Construct: expressed in transfected cells; host or cells: HEK-293
Sequence (P21453 whole entry): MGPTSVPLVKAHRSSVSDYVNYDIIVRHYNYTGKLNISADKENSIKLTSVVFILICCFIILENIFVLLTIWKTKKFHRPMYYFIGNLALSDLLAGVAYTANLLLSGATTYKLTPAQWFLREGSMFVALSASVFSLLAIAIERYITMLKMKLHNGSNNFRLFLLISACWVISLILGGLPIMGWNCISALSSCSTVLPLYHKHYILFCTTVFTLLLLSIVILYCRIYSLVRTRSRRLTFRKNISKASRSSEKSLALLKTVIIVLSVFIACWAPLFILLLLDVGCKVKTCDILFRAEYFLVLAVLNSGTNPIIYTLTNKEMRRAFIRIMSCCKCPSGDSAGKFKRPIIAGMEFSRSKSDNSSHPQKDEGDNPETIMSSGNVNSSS
RUN_DESCRIPTION: S1P1 binding assay: inhibition of [33P]-S1P binding to membrane fraction of HEK-293 cells transferred with the human Edg-1 (S1P1) gene
ASSAY_SETUP: test compound 10 μM; inhibition of [33P]-S1P binding, membrane fraction
Would you kindly list inhibition at 10 µM for each of these compounds?
One number for each entry, in %.

# example entries with known answers
COMPOUND | TEST_TARGET | UNIT_ABBREV | inhibition at 10 µM
CCn1c(Oc2cccc(N3CCN(C)CC3)c2)nnc1[C@@H](C)NS(=O)(=O)c1ccc2c(c1)C(C)(C)CCC2(C)C [Compound 676] | human Edg-1 (S1P1) (Homo sapiens, UniProt P21453) | % | 92.6
CCn1c(Oc2cccc(N3CCN(C)CC3)c2)nnc1[C@@H](C)NS(=O)(=O)c1c(Cl)cc(Cl)cc1Cl [Compound 566] | human Edg-1 (S1P1) (Homo sapiens, UniProt P21453) | % | 88.7

Ask | Value lookup for inhibition at 10 µM; key = CCn1c(Oc2ccc3cc[nH]c3c2)nnc1[C@@H](C)NS(=O)(=O)c1ccc(Br)c(C)c1 [Compound 440]
Reply | 88.4
